System: ABC-1
test_name: relative viability (nuclei count vs DMSO), 5 days (fraction); higher = more cells survive
condition_parameters: first compound 0.6325 µM
readout_name: relative viability
Lab note: jot the number down without any unit.

COCC1(CO)C(=O)C2CCN1CC2 (stereo not drawn) [PRIMA-1MET] + CCNC(=O)c1noc(-c2cc(C(C)C)c(O)cc2O)c1-c1ccc(CN2CCOCC2)cc1 [Luminespib] (partner 0.01 µM)
0.375
COCC1(CO)C(=O)C2CCN1CC2 (stereo not drawn) [PRIMA-1MET] + CS(=O)(=O)CCNCc1ccc(-c2ccc3ncnc(Nc4ccc(OCc5cccc(F)c5)c(Cl)c4)c3c2)o1 [Lapatinib] (partner 2 µM)
1.11

Request: What value of relative viability has been recorded for this entry: COCC1(CO)C(=O)C2CCN1CC2 (stereo not drawn) [PRIMA-1MET] + COc1cccc2cc(-c3nc([C@H]4CC[C@H](C(=O)O)CC4)n4ncnc(N)c34)[nH]c12 [OSI-027] (partner 0.5 µM)
Result: 0.401
